B1: INTS3 (parent)
chain: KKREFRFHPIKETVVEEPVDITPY

variants of: B1; test: protein stability index of a GFP-peptide fusion (GPS, HEK-293T) (PSI 1-6); higher = more stable; details: c terminus: a fixed tail appended;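 further: lentivirally expressed fusions sorted by FACS into six bins by GFP to DsRed ratio, PSI derived from sequencing read proportions per bin multiplied by bin number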
Reported protein stability index is given for each of the following variants.

sequence variant | protein stability index
R6I | 4.01
E4A | 2.29
H8C | 3.25
E17H | 1.62
V19Q | 1.8
V14Q | 3.65
K11H | 2.04
E4H | 1.9
E16D | 2.18
I10A | 2.08
Y24A | 2.59
